Reported abundance fitness values are given for each entry in this list.
B1: Pre-mRNA-processing factor 40 homolog B, residues 274 to 332; numbered along this chain, Q6NWY9 (parent)
chain: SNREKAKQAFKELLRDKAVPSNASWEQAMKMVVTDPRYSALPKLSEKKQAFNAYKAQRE

Variants of: B1
assayRemarks: abundance fitness (aPCA) (normalised: wild type 0, dead -1); higher = more abundant; growth selection in yeast, the domain comes from the species named
measurementContext: Homo sapiens
testReadout: abundance fitness

| mutationId | reported |
| --- | --- |
| N52W | -0.431 |
| P36Y | -0.806 |
| L13Y | -0.559 |
| L44I | -0.101 |
| A53S | -0.089 |
| E4T | -0.433 |
| P20V | -0.578 |
| P42W | -0.602 |
| K48A | -0.49 |
| L44H | -0.736 |
| V19C | -0.583 |
| T34V | -0.419 |
| N52V | -0.11 |
| V33G | 0.055 |
| R37T | -0.658 |
| E4F | -0.294 |
| L14E | -0.339 |
| F51K | -0.371 |
| K43I | -0.655 |
